assay: Acumen qHTS Assay for Inhibitors of the mTORC1 Signaling Pathway in MEF (Tsc2-/-, p53-/-) Cells: Hit Validation; settings: Acumen imaging; at 37.3 µM (top of the series);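 further: phospho-rpS6 Ser235/236 immunofluorescence normalized to propidium iodide cell count; cells exposed to compound for 24 hours; plate controls were DMSO for no effect and 7.5 nM rapamycin control for full effect; nearly all actives have a fitted effect of over 65% in size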
Inconclusive results are not listed.
endpoint name: activity change, negative = inhibition (%)
Give bare numbers, in %.

Sample answers from the record:
molecule: Cc1cccc(Nc2nnc(-c3ccc(C)c(S(=O)(=O)N4CCN(C)CC4)c3)c3ccccc23)c1
activity change, negative = inhibition (%): -6.53
//
molecule: COc1cc(C(=O)CC2(O)C(=O)N(Cc3ccccc3Cl)c3ccccc32)cc(OC)c1OC (configuration not stated)
activity change, negative = inhibition (%): -2.03
//
molecule: COc1ccc2c(CNCCc3cccs3)c(C(=O)O)n(Cc3ccc(F)cc3Cl)c2c1
activity change, negative = inhibition (%): -51.9

Below is a list of molecules. For each, state its recorded activity change, negative = inhibition.
1. Oc1ccccc1Nc1nc(-c2ccccc2)c2cc(Cl)ccc2n1
2. CCN1CCOC(=O)C1CC(=O)Nc1ccc(Br)cc1 (configuration not stated)
3. CCc1ccc(CN(Cc2ccco2)C(=O)c2cc(-c3ccc(C)c(F)c3)on2)cc1

Out:
1. -6.7
2. -3.02
3. -10.4

I would be grateful if you could provide activity change, negative = inhibition for each of the following entries.
1. O=C(COc1ccc(F)cc1)Nc1ccc(Cl)c(-c2nc3ccccc3[nH]2)c1
2. Cc1ccc(-c2nn(C)c(=O)c3ccccc23)cc1S(=O)(=O)NCCCN(C)C
3. CC(C)(C)c1ccc(C2NC(=O)c3n[nH]c(-c4cccs4)c32)cc1 (configuration not stated)
4. O=C(Nc1ccc(F)c(Cl)c1)c1cc(S(=O)(=O)N2CCCc3ccccc32)ccc1F
5. CN1CCN(C(CNC(=O)C(=O)Nc2cccc(Cl)c2)c2ccc3c(c2)OCO3)CC1 (configuration not stated)

Out:
[-4.39, 5.39, -6.84, -51.1, -4.53]

For each entry beneath this line, provide reported activity change, negative = inhibition.
1. CC(C)Oc1ccc(CNC(=O)c2ccc3nc(SCc4ccc(F)cc4)n(C)c3c2)cc1
2. CCOc1ccc(NC(=O)CSc2oc(-c3ccccc3)nc2S(=O)(=O)c2ccc(Cl)cc2)cc1
3. CCSc1oc(-c2ccc(F)cc2)nc1S(=O)(=O)c1ccc(C)cc1

Out:
[-8.96, -112, -25.8]

The following molecules each have a reported value; give each one's activity change, negative = inhibition.
1. CC(=O)Nc1ccc2nc(-c3cc(C)ccc3C)[nH]c2c1
2. Cc1ccc(S(=O)(=O)c2nnn3c2nc(NCc2cccs2)c2sccc23)cc1
3. CCCCOC(=O)c1ccc(NC(=O)c2sc3nc(C)cc(C)c3c2N)cc1
4. COc1ccc(CNC(=O)c2cc(-c3ccc(OC)c(OC)c3)nc3n[nH]c(-c4ccc(C)cc4)c23)cc1
5. CN(C)c1ccc(Nc2nc3ccccc3n3nnnc23)cc1
6. CC(C)CCNC(=O)c1cccc(Nc2nc3ccccc3n3nnnc23)c1
7. COc1ccc(C2=NS(=O)(=O)N(C)C(C(=O)Nc3ccc(OC(F)(F)F)cc3)=C2)cc1
8. CC1=C(C(=O)OC2CCCC2)C(c2ccccc2Cl)CC(=O)N1 (configuration not stated)

Out:
1: -21.9; 2: -1.4; 3: -72; 4: -124; 5: -10; 6: -88.5; 7: 2.76; 8: -10.6

Source of measurements: PubChem BioAssay AID651784
